- Tested on: NCI-H522 lung
- METHOD: NCI tumour cell line growth inhibition, 48 h; in the data active = GI50 below about 0.43 µM; inactive = the rest
Hi! Could you answer with just one of these? 1.0 for active, 0.0 for inactive

// param item: CCCCCCCCCCCC1=NC(C)(C)CN1CC(C)O (centres undefined) ; yields the recorded call 0.0

Others:
// param item: "Cc1ccc2nc3c(n2c1)C(=O)C(=O)c1ccccc1-3" ; yields the recorded call 1.0

// param item: "Nc1nc(-c2ccc(Cl)cc2)cc(-c2ccc(Cl)cc2)c1-c1nc2ccccc2o1" ; yields the recorded call 0.0

// param item: "CCOC(=O)Cn1c(-c2nonc2NC(=O)c2ccccc2F)nc2ccccc21" ; yields the recorded call 0.0
